Each recorded value in this set is attributed to ChEMBL document CHEMBL6087414.

# experimental-protocol: Cytotoxicity against human BEAS-2B cells assessed as cell viability upto 20 uM incubated for 48 hrs by CCK8 assay relative to control
# Type: toxicity, cell-based
# test-conditions: read-out: Activity
Please respond with reported viability at 48 h, 20 µM for every item in the list.

c1ccc2c(c1)nc(-c1cc(-c3ccc(N4CCOCC4)cc3)on1)n2CCN1CCCCC1
> 90%

Next compound, viability at 48 h, 20 µM to be filled in.
Any idea what its viability at 48 h, 20 µM is? The compound is c1ccc2c(c1)nc(-c1cc(-c3ccc(N4CCOCC4)cc3)on1)n2CCN1CCCC1
> 90%

###

# Test system: A549
# experimental-protocol: Cytotoxicity against human A549 cells assessed as inhibition of cell viability incubated for 48 hrs by CCK8 assay
# Assay type: functional, cell-based
# test-conditions: A549, 48 h
property-measured: IC50 (µM)
Answers are plain numbers, in µM.

Known IC50 results, listed for orientation:
c1ccc2c(c1)nc(-c1cc(-c3ccc(N4CCCCC4)cc3)on1)n2CCN1CCCCCC1
9.38
c1ccc2c(c1)nc(-c1cc(-c3ccc(N4CCCC4)cc3)on1)n2CCN1CCCCCC1
21.2
c1ccc2c(c1)nc(-c1cc(-c3ccc(N4CCOCC4)cc3)on1)n2CCCN1CCCCC1
6.25

Can you give me IC50 for all of these, one by one?
1. Cc1ccc(C(=O)n2c(-c3cc(-c4ccc(N5CCOCC5)cc4)on3)nc3ccccc32)cc1
2. c1ccc2c(c1)nc(-c1cc(-c3ccc(N4CCOCC4)cc3)on1)n2CCN1CCOCC1
3. CN(C)c1ccc(-c2cc(-c3nc4ccccc4n3CCN3CCOCC3)no2)cc1
4. CN(C)c1ccc(-c2cc(-c3nc4ccccc4n3CCCN3CCOCC3)no2)cc1
5. Cc1cc(C)cc(C(=O)n2c(-c3cc(-c4ccc(N5CCOCC5)cc4)on3)nc3ccccc32)c1

[19.2, 8.46, 12.7, 13.6, 19.2]

Can you give me IC50 for all of these, one by one?
1. c1ccc2c(c1)nc(-c1cc(-c3ccc(N4CCCCC4)cc3)on1)n2CCCN1CCOCC1
2. c1ccc2c(c1)nc(-c1cc(-c3ccc(N4CCOCC4)cc3)on1)n2CCN1CCCC1
3. c1ccc2c(c1)nc(-c1cc(-c3ccc(N4CCCC4)cc3)on1)n2CCN1CCOCC1
4. CN(C)CCCn1c(-c2cc(-c3ccc(N(C)C)cc3)on2)nc2ccccc21

1. 13.8
2. 6.32
3. 19.9
4. 20.6

###

Please respond with reported pIC50 for every item in the list.
# System: A549
# experimental-protocol: Cytotoxicity against human A549 cells assessed as inhibition of cell viability incubated for 48 hrs by CCK8 assay
# Format: functional, cell-based
# test-conditions: A549, 48 h
One number for each entry, as −log10 of the molar value.

Known pIC50 results, listed for orientation:
CCc1ccc(C(=O)n2c(-c3cc(-c4ccc(N5CCOCC5)cc4)on3)nc3ccccc32)cc1
4.63
c1ccc2c(c1)nc(-c1cc(-c3ccc(N4CCCCCC4)cc3)on1)n2CCN1CCCCC1
4.96
CCN(CC)CCCn1c(-c2cc(-c3ccc(N4CCCCC4)cc3)on2)nc2ccccc21
5.13
c1ccc2c(c1)nc(-c1cc(-c3ccc(N4CCCCC4)cc3)on1)n2CCN1CCCC1
5.11

Can you give me pIC50 for all of these, one by one?
1. c1ccc2c(c1)nc(-c1cc(-c3ccc(N4CCCC4)cc3)on1)n2CCN1CCCC1
2. c1ccc2c(c1)nc(-c1cc(-c3ccc(N4CCCCC4)cc3)on1)n2CCCN1CCCCC1
3. CN(C)CCCn1c(-c2cc(-c3ccc(N4CCOCC4)cc3)on2)nc2ccccc21

[4.68, 4.87, 5.00]

Any idea what its pIC50 is? The compound is c1ccc2c(c1)nc(-c1cc(-c3ccc(N4CCCCCC4)cc3)on1)n2CCN1CCCC1
4.98
